# System: HLA-A*02:01
# Assay Info: IEDB peptide-MHC binding, purified MHC/competitive/radioactivity; bounds were set here for any values at or beyond the usual limits of such assays
# Experimental Parameters: source organism: hepatitis C virus genotype 1a
pIC50: −log10 of the molar value.
Some sequences, each annotated with its measured pIC50.
Endpoint Name: pIC50

INSERT INTO results (sequence_data, system, reading) VALUES
  ('GVDPNIRTGV', 'HLA-A*02:01', 6.45),
  ('FLVGQLFTF', 'HLA-A*02:01', 7.17),
  ('RLWHYPCTV', 'HLA-A*02:01', 7.92);

Where these numbers come from: the Immune Epitope Database (IEDB)
